Experiment: Single intravenous dose escalation of P5P, plasma pharmacokinetics (Examples Two and Three)
Type: in vivo, human
Details: both sexes, human; Group 2, P5P 5 mg/kg single iv; plasma PA; mean
OBSERVABLE: AUC(0-inf) (ng·h/mL)
Numbers only, in ng·h/mL.

Entry Cc1ncc(CO)c(C(=O)O)c1O , AUC(0-inf) reported as 10700

----------
Experiment: Single intravenous dose escalation of P5P, plasma pharmacokinetics (Examples Two and Three)
Format: in vivo, human
Conditions: Group 1, P5P 1 mg/kg single iv; plasma P5P; mean
OBSERVABLE: Kel (h⁻¹)
Answers are plain numbers, in h⁻¹.

Entry Cc1ncc(COP(=O)(O)O)c(C=O)c1O [P5P, Pyridoxal 5′-phosphate, reference compound] , Kel reported as 0.14
